# procedure-text: Drug concentration in blood of iv dosed mouse infected with Escherichia coli 25922 infused for 20 hrs
# Format: ADME, organism-based
# experimental-parameters: read-out: Ct
Starred links: 1 amine or outer side, 2 acyl side, 3 side chain; linkers in the order of their positions; H or OH if unused. Non-standard residues stand in square brackets, D forms with d. Residues, ends and D or L forms follow the SMILES beside them. *: point of attachment. X1 = CCCCCC[C@@H](OC[C@@H](C)N[*:1])[C@@H](C)C(=O)[*:2]; Gly(cHept) = N[C@H](C(=O)O)C1CCCCCC1; NMeNva = CCC[C@H](NC)C(=O)O; X2 = NC[C@H]1C[C@H](*)C1; Dap = NC[C@H](N)C(=O)O
value-type: concentration at 20 h (µM)
Answers are plain numbers, in µM.

What value of measured concentration at 20 h is listed for CCCCCC[C@H]1OC[C@@H](C)NC(=O)[C@H](CO[C@H]2C[C@H](CN)C2)NC(=O)[C@H](CN)NC(=O)[C@H](C2CCCCCC2)NC(=O)[C@H](CCC)N(C)C(=O)[C@@H]1C (cyclo([Dap]S(X2)[X1][NMeNva][Gly(cHept)])) ? 27
